Below: a set of entries, each annotated with reported koff.
SYSTEM UNDER TEST: T1, cynomolgus monkey C-MET His tag, monomeric (cynomolgus monkey, UniProt A0M8R7 25-932 (Papio anubis entry))
T1 construct: also called monomeric cyno C-MET; cyCMET
T1 sequence (A0M8R7 25-932 S170N/I621T): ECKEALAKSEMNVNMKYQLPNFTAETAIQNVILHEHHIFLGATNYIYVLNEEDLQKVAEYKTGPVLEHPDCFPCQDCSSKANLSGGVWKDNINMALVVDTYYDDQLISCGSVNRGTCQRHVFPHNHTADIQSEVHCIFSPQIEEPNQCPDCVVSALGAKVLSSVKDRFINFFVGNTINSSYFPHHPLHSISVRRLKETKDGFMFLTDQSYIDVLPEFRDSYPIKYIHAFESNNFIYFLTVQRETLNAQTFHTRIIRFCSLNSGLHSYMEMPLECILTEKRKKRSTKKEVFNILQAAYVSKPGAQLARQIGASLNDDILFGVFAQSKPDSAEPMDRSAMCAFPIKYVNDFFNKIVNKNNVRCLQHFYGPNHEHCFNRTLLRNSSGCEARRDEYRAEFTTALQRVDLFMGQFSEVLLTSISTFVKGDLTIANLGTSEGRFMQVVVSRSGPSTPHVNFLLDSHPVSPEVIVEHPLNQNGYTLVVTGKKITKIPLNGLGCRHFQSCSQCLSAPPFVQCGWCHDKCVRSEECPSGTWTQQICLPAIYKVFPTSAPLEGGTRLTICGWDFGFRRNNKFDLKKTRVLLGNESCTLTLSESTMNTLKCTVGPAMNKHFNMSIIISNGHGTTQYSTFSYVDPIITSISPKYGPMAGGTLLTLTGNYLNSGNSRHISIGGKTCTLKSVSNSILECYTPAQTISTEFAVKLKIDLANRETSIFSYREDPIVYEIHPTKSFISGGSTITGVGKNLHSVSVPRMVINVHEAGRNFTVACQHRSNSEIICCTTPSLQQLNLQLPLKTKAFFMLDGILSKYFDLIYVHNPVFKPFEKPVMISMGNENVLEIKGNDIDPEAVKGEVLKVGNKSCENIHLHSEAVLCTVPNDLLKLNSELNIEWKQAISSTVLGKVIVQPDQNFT
MEASUREMENT DESCRIPTION: SPR Biacore, IgG captured, monomeric C-MET-His analyte
MEASURE: koff (s⁻¹)

INSERT INTO results (binder, experimental_value) VALUES
  ('MH8 (antibody, IgG4, V domains shown) VH: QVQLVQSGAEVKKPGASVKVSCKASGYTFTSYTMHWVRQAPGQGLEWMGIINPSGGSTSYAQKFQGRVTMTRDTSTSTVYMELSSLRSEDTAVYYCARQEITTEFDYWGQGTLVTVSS VL: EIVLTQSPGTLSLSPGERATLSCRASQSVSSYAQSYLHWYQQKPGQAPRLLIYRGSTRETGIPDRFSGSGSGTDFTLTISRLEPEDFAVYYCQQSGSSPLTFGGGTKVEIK', 0.00021),
  ('04E10 (antibody, IgG4, V domains shown) VH: QVQLVQSGAEVKKPGASVKVSCKASGYIFTSYTMHWVRQAPGQGLEWMGWIKPNNGSASYAQKFQGRVTMTRDTSTSTVYMELSSLRSEDTAVYYCARSEITTEEDYWGQGTLVTVSS VL: EIVLTQSPGTLSLSPGERATLSCRASQSVDSYANSYLHWYQQKPGQAPRLLIYRGSTRESGIPDRFSGSGSGTDFTLTISRLEPEDFAVYYCQQSKSEPLTFGGGTKVEIK', 0.00011),
  ('Grafted clone (Graft), IGHV1-46/IGKV3-20 CDR graft of 224G11 (antibody, human IgG4, V domains shown, also called VH graft/VL graft) VH: QVQLVQSGAEVKKPGASVKVSCKASGYIFTAYTMHWVRQAPGQGLEWMGWIKPNNGLANYAQKFQGRVTMTRDTSTSTVYMELSSLRSEDTAVYYCARSEITTEFDYWGQGTLVTVSS VL: EIVLTQSPGTLSLSPGERATLSCRASQSVDSYANSFLHWYQQKPGQAPRLLIYRASTRESGIPDRFSGSGSGTDFTLTISRLEPEDFAVYYCQQSKEDPLTFGGGTKVEIK', '5.2e-05');
